These data points were gathered from patent US10758534B2.

- TARGET OR SYSTEM: F508del (Homo sapiens, UniProt P13569, DEL508-508)
- Construct: expressed in transfected cells
- Sequence (P13569 with tags, fused parts or gaps DEL508-508): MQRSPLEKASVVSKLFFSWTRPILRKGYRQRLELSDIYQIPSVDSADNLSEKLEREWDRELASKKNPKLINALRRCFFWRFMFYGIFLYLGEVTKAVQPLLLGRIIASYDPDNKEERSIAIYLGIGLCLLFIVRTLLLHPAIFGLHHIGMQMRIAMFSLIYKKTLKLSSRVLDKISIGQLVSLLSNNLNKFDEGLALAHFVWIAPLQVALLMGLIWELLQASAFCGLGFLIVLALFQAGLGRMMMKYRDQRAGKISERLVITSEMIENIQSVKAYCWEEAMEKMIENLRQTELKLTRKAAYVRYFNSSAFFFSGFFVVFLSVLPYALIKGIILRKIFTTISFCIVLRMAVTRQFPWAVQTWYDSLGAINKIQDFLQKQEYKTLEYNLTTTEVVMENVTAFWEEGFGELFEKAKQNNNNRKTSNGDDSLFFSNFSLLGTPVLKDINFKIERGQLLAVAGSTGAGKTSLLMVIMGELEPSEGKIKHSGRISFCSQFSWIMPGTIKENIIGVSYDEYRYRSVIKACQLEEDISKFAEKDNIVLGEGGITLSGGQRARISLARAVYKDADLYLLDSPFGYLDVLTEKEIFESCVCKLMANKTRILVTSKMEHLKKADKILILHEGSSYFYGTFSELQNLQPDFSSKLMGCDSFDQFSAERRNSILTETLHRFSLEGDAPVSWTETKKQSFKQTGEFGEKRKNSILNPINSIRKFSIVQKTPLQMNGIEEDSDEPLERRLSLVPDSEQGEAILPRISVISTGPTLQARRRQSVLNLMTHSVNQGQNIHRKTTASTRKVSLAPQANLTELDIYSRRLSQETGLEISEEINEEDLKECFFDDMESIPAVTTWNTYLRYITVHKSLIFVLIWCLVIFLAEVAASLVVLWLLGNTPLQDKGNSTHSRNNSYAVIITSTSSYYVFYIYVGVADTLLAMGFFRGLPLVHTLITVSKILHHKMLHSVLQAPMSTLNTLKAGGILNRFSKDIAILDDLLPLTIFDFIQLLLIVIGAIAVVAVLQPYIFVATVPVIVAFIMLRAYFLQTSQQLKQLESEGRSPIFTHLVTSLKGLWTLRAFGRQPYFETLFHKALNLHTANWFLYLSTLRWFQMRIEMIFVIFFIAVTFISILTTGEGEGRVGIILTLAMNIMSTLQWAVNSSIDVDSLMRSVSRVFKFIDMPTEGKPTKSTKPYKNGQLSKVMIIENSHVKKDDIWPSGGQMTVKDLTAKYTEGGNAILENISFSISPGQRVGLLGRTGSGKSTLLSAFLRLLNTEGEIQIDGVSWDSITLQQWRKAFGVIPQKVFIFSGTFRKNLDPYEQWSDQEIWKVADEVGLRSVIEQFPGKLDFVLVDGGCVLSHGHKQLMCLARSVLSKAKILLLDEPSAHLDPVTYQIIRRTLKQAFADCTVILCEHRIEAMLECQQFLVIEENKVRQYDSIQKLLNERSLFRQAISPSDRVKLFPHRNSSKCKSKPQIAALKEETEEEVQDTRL
- MEASUREMENT PROTOCOL: Protocol 1: membrane potential optical assay (FLIPR III, voltage sensing dye), identification of potentiator compounds
- Type: cell-based
- CONDITION CONTEXT: Table 3, compounds of Table 1
MEASURED ENDPOINT: EC30

Please review the entries below; each comes with its answer.
- COMPOUND: "CCCc1ccc(S(=O)(=O)NC(=O)C2(C)c3cccc(OCC)c3CN2Cc2c(C)cc(C)cc2C)cc1N (stereo not drawn) [Compound 1367]"
  EC30: "+++ (“+++” means <3 uM)"
- COMPOUND: "Cc1nc(OCC(C)C)ccc1-c1ccc(C(=O)NS(=O)(=O)c2cccc(N)n2)c(N2[C@H](C)CC[C@@H]2C)n1 [Compound 1537]"
  EC30: "+++ (“+++” means <3 uM)"
- COMPOUND: "CC(C)c1ccccc1Oc1nc(C(C)(C)C)ccc1C(=O)NS(=O)(=O)c1cccc(N)n1 [Compound 1031]"
  EC30: "+++ (“+++” means <3 uM)"
- COMPOUND: "C[C@@H]1CN(c2nc(-c3cc(F)c(F)cc3F)ccc2C(=O)NS(=O)(=O)c2ccc[nH]c2=O)C(C)(C)C1 [Compound 1981]"
  EC30: "+++ (“+++” means <3 uM)"
- COMPOUND: "CC(C)COc1cc(F)cc(-c2nc(N3C[C@@H](C)CC3(C)C)c(C(=O)NS(=O)(=O)c3cccc(N)n3)cc2Cl)c1 [Compound 1641]"
  EC30: "+++ (“+++” means <3 uM)"
- COMPOUND: "CC(C)Oc1ccc(-c2ccc(C(=O)NS(=O)(=O)c3cccc(N)n3)c(N3CC4CCCC4C3)n2)cn1 (stereo not drawn) [Compound 1107]"
  EC30: "+++ (“+++” means <3 uM)"
- COMPOUND: "COc1cc(-c2cc(F)cc(OCC(C)C)c2)nc(N2[C@H](C)CC[C@@H]2C)c1C(=O)NS(=O)(=O)c1cccc(N)n1 [Compound 1254]"
  EC30: "+++ (“+++” means <3 uM)"
- COMPOUND: "CC(C)CCOc1cccc(-c2ccc(C(=O)NS(=O)(=O)c3cccc(N)n3)c(N3CC(C)CC3(C)C)n2)n1 (stereo not drawn) [Compound 1135]"
  EC30: "+++ (“+++” means <3 uM)"

Ask: Under F508del (Homo sapiens, UniProt P13569, DEL508-508): EC30 value of CC1CN(c2ncccc2C(=O)NS(=O)(=O)c2cccc(OC3(C)CCCC3)n2)C(C)(C)C1 (stereo not drawn) [Compound 1936] ?
Result: +++ (“+++” means <3 uM)

Ask: Under F508del (Homo sapiens, UniProt P13569, DEL508-508): EC30 value of C[C@@H]1CN(c2nc(C(C)(C)C)c(C3=CCC(C(F)(F)F)CC3)cc2C(=O)NS(=O)(=O)c2cccc(N)n2)C(C)(C)C1 (stereo partly drawn) [Compound 1380] ?
Result: +++ (“+++” means <3 uM)
